Target: PCSK9 (Homo sapiens, UniProt Q8NBP7;Q8NBP7 Q8NBP7:31-152,Q8NBP7:153-692)
Sequence (Q8NBP7 31-152, chain 1 of 2): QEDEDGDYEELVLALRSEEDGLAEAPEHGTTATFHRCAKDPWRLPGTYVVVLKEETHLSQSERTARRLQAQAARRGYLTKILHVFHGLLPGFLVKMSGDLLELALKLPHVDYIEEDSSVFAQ
Sequence (Q8NBP7 153-692, chain 2 of 2): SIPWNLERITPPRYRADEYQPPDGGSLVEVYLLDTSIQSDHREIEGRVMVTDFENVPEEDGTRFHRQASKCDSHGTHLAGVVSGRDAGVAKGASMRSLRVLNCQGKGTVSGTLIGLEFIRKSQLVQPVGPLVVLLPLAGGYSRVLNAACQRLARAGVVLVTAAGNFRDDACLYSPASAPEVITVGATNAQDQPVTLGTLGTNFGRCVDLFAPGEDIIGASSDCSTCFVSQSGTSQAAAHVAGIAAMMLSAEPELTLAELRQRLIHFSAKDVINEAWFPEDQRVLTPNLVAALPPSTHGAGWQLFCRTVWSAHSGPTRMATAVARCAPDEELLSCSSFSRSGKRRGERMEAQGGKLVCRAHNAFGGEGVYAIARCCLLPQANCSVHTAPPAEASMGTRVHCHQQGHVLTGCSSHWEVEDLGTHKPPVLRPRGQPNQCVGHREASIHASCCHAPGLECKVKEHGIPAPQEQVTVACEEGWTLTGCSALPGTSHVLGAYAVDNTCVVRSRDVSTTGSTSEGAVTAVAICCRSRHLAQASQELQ
Assay: SPR; 0.9x HBS-EP, 25 C
Conditions: tags: ACROBiosystems PC9-H5223; label: biotin
recorded_endpoint: pKd
pKd is a log-scale quantity: -log10 of the concentration expressed in molar.

- TGCTACCGTTGTTTACCCTGCCACCTTCTGGAGTCCAGATGTAGGTAG (ssDNA, only three side chains: phenol at position 9, isopentyl at position 21, cyclopentyl at position 24 (so in the source); rest unfunctionalized DNA [phenol at 9, isopentyl at 21, cyclopentyl at 24 (positions as printed); all other side chains removed; base sequence unchanged]) [PCSK9-Evo5 3 side chains]: 8.43

Switching to the query record.
Entry TTCTACCGTTTTTGCCCCCGGCACCTTCTGGAGTCCAGATGTAGGTAG (ssDNA, HFNAP side chains as PCSK9-A5) [PCSK9-A5Trunc] has what pKd? 7.17
